Exercise: for every item that follows, state its recorded response of 2nd mAb.
molecular target: T1, ZIKV-VLP (Native Antigen Inc.) (Zika virus); assay: BLI binning on ZIKV-VLP; 1st mAb: 78-2
T1 construct: also called Zika VLP; ZVLP
In your answer, state the number alone without any accompanying words.

**Q:** // query response of 2nd mAb value for entry anti-ZIKV antibody 289-3 (antibody, V domains shown, also called clone 289-3; subclone 289-3) VH: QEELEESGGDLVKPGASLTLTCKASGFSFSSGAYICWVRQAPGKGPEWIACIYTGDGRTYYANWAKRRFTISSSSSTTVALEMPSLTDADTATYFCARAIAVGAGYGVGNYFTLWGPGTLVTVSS VL: DIVMTQTPSSVSAAVGGTVTINCHASENIYGYLSWYQQKPGQPPKLLIYKASTLASGVPSRFKGSGAGTQFTLTITALECADAATYYCQSYYTSSSNADGSENAFGGGTEVVVEG
**A:** 0.46

**Q:** Query anti-ZIKV antibody 78-2 (antibody, V domains shown, also called clone 78-2) VH: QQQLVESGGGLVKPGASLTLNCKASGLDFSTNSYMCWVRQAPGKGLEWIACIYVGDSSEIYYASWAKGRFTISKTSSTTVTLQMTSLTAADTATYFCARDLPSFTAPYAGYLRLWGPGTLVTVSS VL: QPVLTQPPSLSASLGTTARLTCTLRTGYNVGDYPLLWLQRVPGRPPRYLLTYHTEEFKHQGSGVHSRFSGSKDASENAGVLSISGLQPEDEANYYCYTVHATESSLHYVFGGGTQLTVTG next
**A:** 0.06

**Q:** Query anti-ZIKV antibody 11-3 (antibody, V domains shown, also called clone 11-3) VH: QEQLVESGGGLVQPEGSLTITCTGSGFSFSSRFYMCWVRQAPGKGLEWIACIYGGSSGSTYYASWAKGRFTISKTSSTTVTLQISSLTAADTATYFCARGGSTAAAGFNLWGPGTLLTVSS VL: DVVMTQTPASVSATVGGTVTIKCQASEDIYNLLAWYQQKPGQPPKLLIYYASTLASGVPSRFKGSGSGTEFTLTISDLECADAATYYCQCNDYGGTYVPNAFGGGTEVVVKG next
**A:** 0.23

This collection of values is drawn from patent US20220332800A1.
